TARGET DESC: serotonin 5-HT1A receptor (Rattus norvegicus, UniProt P19327)
Sequence (P19327 1-422): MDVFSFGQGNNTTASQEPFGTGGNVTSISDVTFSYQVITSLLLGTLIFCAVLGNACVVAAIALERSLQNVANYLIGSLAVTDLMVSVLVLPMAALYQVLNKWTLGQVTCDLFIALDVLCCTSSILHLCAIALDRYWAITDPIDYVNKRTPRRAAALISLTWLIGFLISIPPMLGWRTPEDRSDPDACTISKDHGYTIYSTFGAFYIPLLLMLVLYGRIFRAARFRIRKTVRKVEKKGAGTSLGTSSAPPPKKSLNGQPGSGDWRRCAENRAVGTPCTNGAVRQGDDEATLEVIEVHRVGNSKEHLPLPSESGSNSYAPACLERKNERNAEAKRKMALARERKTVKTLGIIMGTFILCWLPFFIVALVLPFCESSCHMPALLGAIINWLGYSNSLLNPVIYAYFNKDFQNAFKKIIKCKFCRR
QUANTITY: Ki

[
  {
    "COMPOUND": "COc1ccccc1N1CCN(CCN(c2ccccn2)C(=O)[C@H]2CC[C@H](CF)CC2)CC1 [trans-mefway]",
    "OBSERVED VALUE": "0.84 nM"
  }
]
